test: Kinetic aqueous solubility by CLND; assay type: physicochemical; conditions: aqueous medium (not further specified), kinetic from dmso stock, high-throughput CLND
metric_name: solubility (µM)
// return numeric value only (unit: µM, not printed)

Known solubility results, listed for orientation:
Given the compound COc1ccc(N2C(=O)c3[nH]nc(CC(C)C)c3C2c2ccc(Br)cc2)cc1 (stereo not shown) , what is its reported solubility?
9

Fill in the blank: the reported solubility of COc1ccc(N2C(=O)c3[nH]nc(CC(C)C)c3C2C2CCN(Cc3ccccc3)CC2)cc1 (stereo not shown) is ____.
188

Consider now this further compound.
State the recorded solubility for this entry: COc1ccc(N2C(=O)c3[nH]nc(CC(C)C)c3C2c2ccc(F)c(C)n2)cc1 (stereo not shown)
305

* * *

system: L. major promastigotes (strain LV39); assay: Promastigote assay, CellTiter-Glo (Assay Conditions F); assay type: cell-based; conditions: Leishmania major; footnote f; read-out: L. major promastigotes EC50
metric_name: pEC50
Entry type: numeric. Quantity: pEC50, the -log10 of concentration in molar units.

Query pEC50 on L. major promastigotes (strain LV39) for COc1ccc(N2C(=O)c3[nH]nc(CC(C)C)c3C2c2ccc(F)cc2)cc1 (centres unmarked)
5.36

Here is another molecule to look at.
Notebook: pull reported pEC50 for L. major promastigotes (strain LV39), entry COc1ccc(N2C(=O)c3[nH]nc(CC(C)C)c3C2c2ccccc2)cc1 (centres unmarked)
5.38

* * *

Measured EC50 of individual entries
tested on: L. donovani promastigotes (strain 1S/Cl2D); assay: Promastigote assay, CellTiter-Glo (Assay Conditions F); type: cell-based; details: Leishmania donovani; read-out: Extracellular promastigote EC50
// note: answer is a bare numeric in nM

Query EC50 on L. donovani promastigotes (strain 1S/Cl2D) for COc1ccc(N2C(=O)c3[nH]nc(CC(C)C)c3C2c2ccc(F)cc2)cc1 (racemic)
2000

// moving on: another record for EC50
API: value(readout= EC50, system= L. donovani promastigotes (strain 1S/Cl2D), query= COc1ccc(N2C(=O)c3[nH]nc(CC(C)C)c3C2c2ccccc2)cc1 (centres unmarked) )
2400

* * *

assay: GSK inMac assay, host cell toxicity readout (LD MAC); type: cell-based, human; details: human; footnote c; read-out: THP-1 Host Cell CC50
metric_name: CC50 (µM)
Use µM as the unit, but write only the number.

// lookup CC50 for COc1ccc(N2C(=O)c3[nH]nc(CC(C)C)c3C2c2cccc(Br)c2)cc1 (stereo not shown) [CMLD010891]
25.1

I would be grateful if you could share the reported CC50 for CC(C)Cc1n[nH]c2c1C(c1ccc(F)cc1)N(c1ccccc1N(C)C)C2=O (stereo not shown) [CMLD011499] .
10

Which CC50 is listed for COc1cc(N2C(=O)c3[nH]nc(CC(C)C)c3C2c2ccc(F)cc2)cc(OC)c1OC (stereo not shown) [CMLD010896] ?
3.2

Fill blank: measured CC50 of the compound CC(C)Cc1n[nH]c2c1C(c1c(Cl)cccc1Cl)N(c1ccc3c(c1)OCO3)C2=O (stereo not shown) [CMLD011547] is ____.
20

* * *

Assay: Kinetic aqueous solubility by CAD
Assay type: physicochemical
Settings: aqueous medium, kinetic from dmso stock, high-throughput CAD
Procedure: Solubility of compounds using ChemiLuminescent Nitrogen Detection (CLND) was measured as described. Solubility of compounds using Charged Aerosol Detection (CAD) was measured as described. Solubility of solid compounds in Fasted Simulated Intestinal Fluid (FaSSIF) was measured as described.
metric_name: solubility (µM)
Unit µM implied. Number only.

So what does the record say about solubility for CC(C)Cc1n[nH]c2c1C(c1ccccc1Cl)N(c1ccc(N(C)C)cc1)C2=O (centres unmarked) ?
21

* * *

system: L. donovani intracellular amastigotes in B10R cells; assay: UCSD L. donovani infection assay (Assay Conditions D); assay type: cell-based; details: Leishmania donovani
With a cut-off of 200 nM, any IC50 strictly below it is called Satisfied; any IC50 meeting it or above is called Not satisfied.

Report whether reported IC50 is lower than 200 nM (strictly) for Cc1cc(F)ccc1C1c2c(CC(C)C)n[nH]c2C(=O)N1c1ccc(N(C)C)cc1 (stereo not shown) [Compound 81]
Satisfied

Check if IC50 falls below 200 nM for CC(C)Cc1n[nH]c2c1C(c1ccc(F)cc1)N(c1ccc3c(c1)OCCO3)C2=O (stereo not shown) [Compound 45] .
Not satisfied

API: query returns whether the compound falls strictly under 200 nM in IC50. Query: Cc1cc(F)ccc1C1c2c(CC(C)C)n[nH]c2C(=O)N1c1ccc2c(c1)OCO2 (stereo not shown) [Compound 70]
Satisfied

Lab note: IC50 threshold 200 nM. Does this compound come in strictly under it? CC(C)Cc1n[nH]c2c1C(c1ccc(F)cc1)N(CCN1CCCC1)C2=O (stereo not shown) [Compound 39]
Not satisfied

Quick check: IC50 of COc1ccc(N2C(=O)c3[nH]nc(CC(C)C)c3C2c2ccc(F)cc2)cc1 (racemic) [Compound 1] under 200 nM?
Not satisfied

* * *

system: L. donovani intracellular amastigotes in B10R cells; assay: UCSD L. donovani infection assay (Assay Conditions D); type: cell-based; conditions: B10R cells
Quick list: L. donovani amastigotes EC75 (μM, B10R cells) per entry.

Use the examples below as a reference point.
Name the reported L. donovani amastigotes EC75 (μM, B10R cells) value associated with the molecule COc1ncc(N2C(=O)c3[nH]nc(CC(C)C)c3C2c2ccccc2Cl)cc1F (centres unmarked)
1.9 µM

Quick check: L. donovani amastigotes EC75 (μM, B10R cells) of COc1cc(N2C(=O)c3[nH]nc(CC(C)C)c3C2c2cc(Br)ccc2F)ccn1 (centres unmarked) ?
>10 µM

Others:
Any idea what its L. donovani amastigotes EC75 (μM, B10R cells) is? The molecule is COc1ncccc1C1c2c(CC(C)C)n[nH]c2C(=O)N1c1ncc(Br)cc1C (centres unmarked)
>10 µM

Look up L. donovani amastigotes EC75 (μM, B10R cells): COc1ccc(N2C(=O)c3[nH]nc(CC(C)C)c3C2c2ccccc2Cl)nc1 (centres unmarked)
>10 µM

* * *

tested on: L. donovani intracellular amastigotes infecting THP-1 macrophages; assay: GSK intramacrophage L. donovani assay (LD AMMAC, inMac; Assay Conditions C); format: cell-based; conditions: Leishmania donovani; values marked c: THP-1 cells; read-out: L. donovani amastigotes EC50 (μM, THP-1 or B10R cells)
metric_name: EC50 (µM)
Use µM as the unit, but write only the number.

# example entries with known answers
What value of EC50 has been reported for the following compound? CC(C)Cc1n[nH]c2c1C(c1ccsc1)N(c1ccc3c(c1)OCO3)C2=O (stereo not shown)
5

Record request: EC50 value, item CC(C)Cc1n[nH]c2c1C(c1ccccc1Br)N(c1ccc3c(c1)OCC(=O)N3)C2=O (stereo not shown)
2

Can you share its EC50? I mean this compound: CC(C)Cc1n[nH]c2c1C(c1cccc(C(F)(F)F)c1)N(c1ccc3c(c1)OCO3)C2=O (stereo not shown)
3.2

Further cases:
Endpoint output: EC50 of COC(=O)c1ccc(N2C(=O)c3[nH]nc(CC(C)C)c3C2c2cccc(C(F)(F)F)c2)cc1 (stereo not shown) . Value?
10

* * *

tested on: L. donovani intracellular amastigotes in B10R cells; test: UCSD L. donovani infection assay (Assay Conditions D); format: cell-based; details: B10R cells
metric_name: L. donovani amastigotes EC75 (μM, B10R cells)

Consider the worked cases shown below.
What measured L. donovani amastigotes EC75 (μM, B10R cells) is associated with COc1cc(N2C(=O)c3[nH]nc(CC(C)C)c3C2c2ccc(F)cc2C)ccn1 (centres unmarked) on L. donovani intracellular amastigotes in B10R cells?
>10 µM

Form field: L. donovani amastigotes EC75 (μM, B10R cells) recorded for COc1ccc(OC)c(C2c3c(CC(C)C)n[nH]c3C(=O)N2c2cncc(Br)c2)c1 (centres unmarked) with L. donovani intracellular amastigotes in B10R cells (enter value)
>10 µM

Query L. donovani amastigotes EC75 (μM, B10R cells) on L. donovani intracellular amastigotes in B10R cells for CC(C)Cc1n[nH]c2c1C(c1ccc(F)cc1Br)N(c1ccc3ncnn3c1)C2=O (centres unmarked)
>10 µM

***
Notebook entry, L. donovani intracellular amastigotes in B10R cells assay: L. donovani amastigotes EC75 (μM, B10R cells) of CC(C)Cc1n[nH]c2c1C(c1ccccc1Br)N(c1ccc3c(c1)OCC(=O)N3)C2=O (centres unmarked) = ?
0.9 µM

Lab note: need L. donovani amastigotes EC75 (μM, B10R cells) for Cc1cc(F)ccc1C1c2c(CC(C)C)n[nH]c2C(=O)N1c1cnn(C(C)C)c1 (centres unmarked) on L. donovani intracellular amastigotes in B10R cells, anyone have it?
>10 µM

Requested read-out L. donovani amastigotes EC75 (μM, B10R cells), target or system L. donovani intracellular amastigotes in B10R cells, entry CC(C)Cc1n[nH]c2c1C(c1ccc(Br)cc1F)N(c1ccn(C)n1)C2=O (centres unmarked)
>10 µM

Value wanted: L. donovani amastigotes EC75 (μM, B10R cells) (L. donovani intracellular amastigotes in B10R cells) of entry CC(C)Cc1n[nH]c2c1C(c1ccc(F)cc1Cl)N(c1cnn(C(C)C)c1)C2=O (centres unmarked)
10.0 µM

# value lookup — system L. donovani intracellular amastigotes in B10R cells, readout L. donovani amastigotes EC75 (μM, B10R cells), item COc1ccc(N2C(=O)c3[nH]nc(CC(C)C)c3C2c2sccc2C)cn1 (centres unmarked)
9.7 µM

GET /values?readout=L. donovani amastigotes EC75 (μM, B10R cells)&system=L. donovani intracellular amastigotes in B10R cells&item= COc1ncc(N2C(=O)c3[nH]nc(CC(C)C)c3C2c2ccccc2C)cc1F (centres unmarked)
1.0 µM

# returns recorded L. donovani amastigotes EC75 (μM, B10R cells) (system: L. donovani intracellular amastigotes in B10R cells) for CC(C)Cc1n[nH]c2c1C(c1ccccc1Cl)N(c1cnn(C(C)C)c1)C2=O (centres unmarked)
>10 µM

Provide the documented L. donovani amastigotes EC75 (μM, B10R cells) with L. donovani intracellular amastigotes in B10R cells as the system for CC(C)Cc1n[nH]c2c1C(c1cccc(C(F)(F)F)c1)N(c1ccc3c(c1)OCO3)C2=O (centres unmarked)
>10 µM

Item: Cc1ccc(N2C(=O)c3[nH]nc(CC(C)C)c3C2c2ccc(F)cc2Cl)cn1 (centres unmarked) Test system: L. donovani intracellular amastigotes in B10R cells Read-out: L. donovani amastigotes EC75 (μM, B10R cells) Value: ?
1.3 µM

// lookup L. donovani amastigotes EC75 (μM, B10R cells) | system=L. donovani intracellular amastigotes in B10R cells | key= COc1cc(C2c3c(CC(C)C)n[nH]c3C(=O)N2c2cc(C3CC3)[nH]n2)cc(OC)c1Br (centres unmarked)
>10 µM

# returns recorded L. donovani amastigotes EC75 (μM, B10R cells) (system: L. donovani intracellular amastigotes in B10R cells) for CC(C)Cc1n[nH]c2c1C(c1cc(C(F)(F)F)ccc1Br)N(c1ccc3ncnn3c1)C2=O (centres unmarked)
>10 µM

Lab note: need L. donovani amastigotes EC75 (μM, B10R cells) for C#CCCCCOc1ccc(N2C(=O)c3[nH]nc(CC(C)C)c3C2c2ccc(F)cc2)cn1 (centres unmarked) on L. donovani intracellular amastigotes in B10R cells, anyone have it?
>10 µM

For L. donovani intracellular amastigotes in B10R cells, provide L. donovani amastigotes EC75 (μM, B10R cells) of CCn1cc(N2C(=O)c3[nH]nc(CC(C)C)c3C2c2ccc(F)cc2F)cn1 (centres unmarked) please.
>10 µM

GET /values?readout=L. donovani amastigotes EC75 (μM, B10R cells)&system=L. donovani intracellular amastigotes in B10R cells&item= CCn1cc(N2C(=O)c3[nH]nc(CC(C)C)c3C2c2ccccc2C)cn1 (centres unmarked)
>10 µM
